Values from patent US20230390278A1

Experiment: Plasma levels of QC and VPA in blood of off-label treated AML patients, measured by LC/MS
Format: in vivo, human
Conditions: human, oral, Patient 2, day 15, QC 200 mg/day, VPA 600 + 600 mg/day, read-out: Plasma QC
QUANTITY KIND: concentration at 15 day (nM)
Could you give me the number in nM? Just the number is fine.

I am curious: what concentration at 15 day value has been reported for CCN(CC)CCCC(C)Nc1c2ccc(Cl)cc2nc2ccc(OC)cc12 (racemic) ?
18

----------
Experiment: Plasma levels of QC and VPA in blood of off-label treated AML patients, measured by LC/MS
Type: in vivo, human
Details: human, oral, Patient 1, day 163, QC 400 mg/day, VPA 300 + 600 mg/day, read-out: Plasma QC
QUANTITY KIND: concentration at 163 day (nM)
Could you give me the number in nM? Just the number is fine.

I am curious: what concentration at 163 day value has been reported for CCN(CC)CCCC(C)Nc1c2ccc(Cl)cc2nc2ccc(OC)cc12 (racemic) ?
38
